ASSAY_SYSTEM: T1, human BCMA on BCMA expressing cell lines (human, UniProt Q02223 1-184)
T1 sequence: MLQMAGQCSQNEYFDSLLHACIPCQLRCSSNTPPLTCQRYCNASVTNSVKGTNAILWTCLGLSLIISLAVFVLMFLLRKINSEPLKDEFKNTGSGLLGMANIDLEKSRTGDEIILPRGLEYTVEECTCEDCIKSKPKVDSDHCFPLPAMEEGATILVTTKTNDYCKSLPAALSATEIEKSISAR
ASSAY_PROCEDURE: cell-based or functional assay
# Lookup of reported TDCC EC50 (EJM cells) keyed by entry
Respond with the bare value in pM.

Worked examples, 3 binders total:
BINDER: BCMA targeting trispecific protein 02C01 (other, trispecific; not shown: anti-albumin domain, anti-CD3 domain and the linkers of the trispecific; the C-terminal His6 that follows them is left out) VHH: EVQLVESGGGLVQPGRSLTLSCAASTNIISISPMGWYRQAPGKQRELVAAIHGASTLYADSVKGRFTISRDNAKNSIYLQMNSLRPEDTALYYCNKVPWGDYHPGNVYWGQGTQVTVSS
TDCC EC50 (EJM cells) [pM]: 1.55
--
BINDER: BCMA targeting trispecific protein 01D02 (other, trispecific; not shown: the C-terminal His6 follows those missing domains and is left out) VHH: EVQLVESGGGLVQPGRSLTLSCAASTNIVSISPMGWYRQAPGKQRELVAAIHGKSTLYADSVKGRFTISRDNAKNSIYLQMNSLRPEDTALYYCNKVPWGDYHPGNVYWGQGTQVTVSS
TDCC EC50 (EJM cells) [pM]: 2.25
--
BINDER: BCMA targeting trispecific protein 01E04 (other, not shown: large carriers; small tags and cut ends, trispecific) VHH: EVQLVESGGGLVQPGRSLTLSCAASTNIASISPMGWYRQAPGKQRELVAAIHGTSTLYADSVKGRFTISRDNAKNSIYLQMNSLRPEDTALYYCNKVPWGDYHPGNVYWGQGTQVTVSS
TDCC EC50 (EJM cells) [pM]: 2.67

Read the next record carefully.
# binder BCMA targeting trispecific protein 02F05 (other, not shown: large carriers; small tags and cut ends, trispecific) VHH: EVQLVESGGGLVQPGRSLTLSCAASTNIFSVSPMGWYRQAPGKQRELVAAIHGNSTLYADSVKGRFTISRDNAKNSIYLQMNSLRPEDTALYYCNKVPWGKYHPRNVYWGQGTQVTVSS ; its TDCC EC50 (EJM cells) = 3

Measured values drawn from patent US20240327534A1 for this set.
